experiment: Intravenous administration to rats on a diet without phytate; urinary and plasma phytate; assay type: in vivo, male Wistar rats; details: male, Wistar, rat, plasma, treated group, 3 intravenous doses of 0.61 mmol/kg (400 mg/kg) 12 hours apart, blood 24 hours after last administration, read-out: plasma level of phytate
measurementType: concentration at 24 h (ng/mL)
# output: bare number, implied unit ng/mL

[Q] Which concentration at 24 h reading was recorded for the molecule O=P(O)(O)O[C@H]1[C@H](OP(=O)(O)O)[C@@H](OP(=O)(O)O)[C@H](OP(=O)(O)O)[C@@H](OP(=O)(O)O)[C@H]1OP(=O)(O)O [phytate, myo-inositol hexaphosphate] ?
[A] 1000

The origin of these recorded values is patent US8778912B2.
